Cited source for all entries: patent US4505929A

assay: Cytotoxicity to HeLa cells in tissue culture testing; format: cell-based; details: human, concentration found to be toxic to the cell, observed at 48 and 72 hours, read-out: Cytotoxicity
measurement type: MCC

Solved entries:
CS(=O)(=O)c1ccc(Oc2ccc(Cl)c(Cl)c2)c(N)c1 : ≤ 6.25 µg/mL
CCN(CC)S(=O)(=O)c1ccc(Oc2ccc(S(=O)(=O)C(F)(F)F)cc2)cc1 : 0.625 µg/mL
CCN(CC)CCOc1ccc(Oc2ccc(S(C)(=O)=O)cc2)cc1 : ≤ 20 µg/mL
CS(=O)(=O)c1ccc(Oc2ccc(Cl)c(Cl)c2)c([N+](=O)[O-])c1 : > 100 µg/mL
C[S+]([O-])c1ccc(Oc2ccc(Cl)c(Cl)c2)cc1 (stereo not drawn) : 12.5 µg/mL
CS(=O)(=O)c1ccc(Oc2ccc([N+](=O)[O-])cc2[N+](=O)[O-])cc1 : 25 µg/mL

Form field: reported MCC of `CS(=O)(=O)c1ccc(Oc2ccc(C(=O)c3ccccc3)cc2)cc1`
> 100 µg/mL

Form field: reported MCC of `CS(=O)(=O)c1ccc(Oc2ccc([N+](=O)[O-])cc2)cc1`
50 µg/mL

Form field: reported MCC of C[S+]([O-])c1ccc(Oc2ccc([N+](=O)[O-])cc2)cc1 (stereo not drawn)
25 µg/mL

Form field: reported MCC of `CSc1ccc(Oc2ccc(C#N)cc2)cc1`
6.25 µg/mL

Form field: reported MCC of `O=S(=O)(c1ccccc1)c1ccc(Oc2ccc(Cl)c(Cl)c2)cc1`
50 µg/mL

Form field: reported MCC of `Cc1cc(Oc2ccc(Cl)c(Cl)c2)ccc1S(C)(=O)=O`
> 50 µg/mL

Form field: reported MCC of `CSc1ccc(Oc2ccc([N+](=O)[O-])cc2)cc1`
12.5 µg/mL

Form field: reported MCC of `COc1ccc(Oc2ccc(S(C)(=O)=O)cc2)cc1`
> 50 µg/mL

Form field: reported MCC of `CN(C)S(=O)(=O)c1ccc(Oc2ccc(S(=O)(=O)c3ccccc3)cc2)cc1`
1.25 µg/mL

###

system: rhinovirus type 64 (RV-64); test: Tissue culture antiviral test (HeLa cells), RV-64; type: cell-based; details: Enterovirus, 48 and 72 hours post-treatment, read-out: Lowest concentration necessary to cause a 50 percent reduction in cytopathic effect, RV-64
measurement type: EC50 (µg/mL)
Just the number in µg/mL, nothing appended.

Solved entries:
CS(=O)(=O)c1ccc(Oc2ccc(OCC#N)cc2)cc1 : 10
CS(=O)(=O)c1ccc(Oc2ccc(C(=O)c3ccccc3)cc2)cc1 : 100
CS(=O)(=O)c1ccc(Oc2ccc(Cc3ccccc3)cc2)cc1 : 2.5
COc1ccc(Oc2ccc(S(C)(=O)=O)cc2)cc1 : 12.5
CS(=O)(=O)c1ccc(Oc2ccc(Cl)c(Cl)c2)cc1 : 0.25
CCN(CC)S(=O)(=O)c1ccc(Oc2ccc(S(=O)(=O)C(F)(F)F)cc2)cc1 : 0.625

Now consider a different compound.
Form field: reported EC50 of `CS(=O)(=O)c1ccc(Oc2ccc(C#N)cc2)cc1`
12.5

###

tested on: Coxsackie A21 virus (Cox A21); test: Tissue culture antiviral test (HeLa cells), Cox A21; assay type: cell-based; details: 48 and 72 hours post-treatment, read-out: Lowest concentration necessary to cause a 50 percent reduction in cytopathic effect, Cox A21
Reported EC50 is given for each of the following molecules.

Solved entries:
CS(=O)(=O)c1ccc(Oc2ccc(C(=O)c3ccccc3)cc2)cc1 [Example 4] : < 6.25 µg/mL
C[S+]([O-])c1ccc(Oc2ccc([N+](=O)[O-])cc2[N+](=O)[O-])cc1 (stereo not drawn) [Example 30] : 6.25 µg/mL
CS(=O)(=O)c1ccc(Oc2ccc(C#N)cc2)cc1 [Example 8] : < 6.25 µg/mL
C[S+]([O-])c1ccc(Oc2ccc(C#N)cc2)cc1 (stereo not drawn) [Example 7] : 3.12 µg/mL
COc1ccc(Oc2ccc(S(C)(=O)=O)cc2)cc1 [Example 18] : 25 µg/mL
O=S(=O)(c1ccc(Oc2ccc(Cl)c(Cl)c2)cc1)C(F)(F)F [Example 25] : < 3.12 µg/mL
CS(=O)(=O)c1ccc(Oc2ccc([N+](=O)[O-])cc2)cc1 [Example 32] : < 6.25 µg/mL
CCN(CC)S(=O)(=O)c1ccc(Oc2ccc(S(=O)(=O)C(F)(F)F)cc2)cc1 [Example 26] : ≤ 0.3 µg/mL

Now consider a different molecule.
Form field: reported EC50 of CSc1ccc(Oc2ccc([N+](=O)[O-])cc2)cc1 [Example 27, 1-(Methylthio)-4-(4-nitrophenoxy)benzene]
≤ 6.25 µg/mL
